- System: A549
- assayProtocol: Cytotoxicity against human A549 cells after 48 hrs
- Assay type: functional, cell-based
- testContext: A549, 48 h
pIC50: −log10 of the molar value.
readoutName: pIC50

C=C1C(=O)O[C@@H]2C[C@@]1(C)OC[C@H]2C1CCC2C3CC=C4C=CCC(=O)C4(C)C3C[C@@H](O)C21C (stereo partly drawn) [WITHAMETELIN M] ... < 5.00
CC1=C(CO[C@@H]2O[C@H](CO)[C@@H](O)[C@H](O)[C@H]2O)C(=O)O[C@@H]([C@@H](CO)C2CCC3C4C[C@@H](O)[C@@]5(O)CC=CC(=O)C5(C)C4CCC32C)C1 (stereo partly drawn) [WITHMETELIN P] ... < 5.00

Quick one: pIC50 of C=C1C(=O)O[C@@H]2C[C@@]1(C)OC[C@H]2C1CCC2C3C[C@@H](O)[C@@]4(O)CC=CC(=O)C4(C)C3C[C@@H](O)C21C (stereo partly drawn) [WITHAMETELIN J] ?
< 5.00

Data origin: ChEMBL document CHEMBL1145455
